Data origin, for the record: patent US9718790B2

Assignment: determine reported IC50 for the given molecules.
Target or system: human P2X3 receptor (Homo sapiens (Human))
Sequence (P56373 whole entry): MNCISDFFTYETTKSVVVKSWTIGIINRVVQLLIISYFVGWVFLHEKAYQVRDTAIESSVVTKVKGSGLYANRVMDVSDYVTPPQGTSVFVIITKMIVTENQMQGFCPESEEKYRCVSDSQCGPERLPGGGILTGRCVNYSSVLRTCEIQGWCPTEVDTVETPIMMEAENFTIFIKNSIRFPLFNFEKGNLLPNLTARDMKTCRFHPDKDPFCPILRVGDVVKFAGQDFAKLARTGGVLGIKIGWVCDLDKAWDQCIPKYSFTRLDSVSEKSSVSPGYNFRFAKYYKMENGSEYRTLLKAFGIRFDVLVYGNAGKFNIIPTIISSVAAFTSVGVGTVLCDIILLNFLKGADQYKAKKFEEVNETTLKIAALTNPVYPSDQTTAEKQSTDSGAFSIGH
Method notes: Evaluation of human P2X3 receptor inhibitory activity (Fluo-3 calcium fluorescence, FDSS 3000, ATP stimulation);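 note: stimulus was 50 nM ATP with fluorescence followed for 3 min, and the response per well was peak post-ATP fluorescence divided by the reading at measurement start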
Format: cell-based
Measurement conditions: human P2X3 receptor, Test Example 1
Give bare numbers, in nM.

Example entries begin here.
{"Molecule": "CCOC(=O)CN(C(=O)OC(C)(C)C)c1cc(Oc2ccc(/N=c3\\[nH]c(=O)n(CC)c(=O)n3Cc3ccc(Cl)cc3)cc2)ccn1 [Compound I-2540]", "IC50 (nM)": 104}
{"Molecule": "Cn1c(=O)[nH]/c(=N\\c2ccc(Oc3ncc(C(=O)O)s3)cc2)n(Cc2ccc(Cl)cc2)c1=O [Compound I-2409]", "IC50 (nM)": 14}
{"Molecule": "NC(=O)Cn1c(=O)[nH]/c(=N\\c2ccc(Oc3cccnn3)cc2)n(Cc2ccc(Cl)cc2)c1=O [Compound I-2689]", "IC50 (nM)": 20}
{"Molecule": "Cc1ccc(Cn2c(=O)n(C)c(=O)[nH]/c2=N\\c2ccc(Oc3cnc(C(=O)O)cn3)cc2)cc1 [Compound I-2385]", "IC50 (nM)": 13}
{"Molecule": "CCCOc1ccc(/N=c2\\[nH]c(=O)n(C[C@H](CC)C(=O)OC)c(=O)n2Cc2ccc(C)cc2)cc1 [Compound I-0883]", "IC50 (nM)": 24}

Below are some molecules; for each one, tell me its IC50.
1. CCn1c(=O)[nH]/c(=N\c2ccc(Oc3cccc(CCC(=O)O)c3)cc2)n(Cc2ccc(Cl)cc2)c1=O [Compound I-2232]
2. O=c1[nH]/c(=N\c2ccc(Oc3cnsn3)cc2)n(Cc2ccc(Cl)cc2)c(=O)n1CC(CO)CO [Compound I-2478]
3. O=C(Cn1c(=O)[nH]/c(=N\c2ccc(Oc3nccs3)cc2)n(Cc2ccc(Cl)cc2)c1=O)NCCO [Compound I-2646]
4. NC(=O)Cn1c(=O)[nH]/c(=N\c2ccc(Oc3ccon3)cc2)n(Cc2ccc(Cl)cc2)c1=O [Compound I-2512]
5. O=c1[nH]/c(=N\c2ccc(Oc3ncccn3)cc2)n(Cc2ccc(Cl)cc2)c(=O)n1C[C@H](O)CO [Compound I-2418]

[13, 5, 8, 11, 12]

Quick one: give me IC50 for each item below, same order please.
1. CCn1c(=O)[nH]/c(=N\c2ccc(Oc3nnn[nH]3)cc2)n(Cc2ccc(Cl)cc2)c1=O [Compound I-2515]
2. Cn1c(=O)[nH]/c(=N\c2ccc(Oc3cc(C(=O)O)ccn3)cc2)n(Cc2ccc(Cl)cc2)c1=O [Compound I-2391]
3. CC[C@@H](Cn1c(=O)[nH]/c(=N\c2ccc(OC(C)C)c(C)c2)n(Cc2ccc(Cl)cc2)c1=O)C(=O)O [Compound I-0889]
4. CCn1c(=O)[nH]/c(=N\c2ccc(Oc3ccc(NC(=O)NC)nc3)cc2)n(Cc2ccc(Cl)cc2)c1=O [Compound I-2426]

346
29
53
11
